Tested on: HCV pseudoparticles
Assay: HCV pseudoparticle infection assay (luciferase reporter, Huh7 cells)
Type: cell-based, HCV (genotype 1b E1 and E2 envelope)
Settings: Hepatitis C virus, genotype 1b, Huh-7, 48 h, HCV pseudoparticles (genotype 1b), luciferase activity 2 days after infection, class
pEC50: −log10 of the molar value.
observable: pEC50

Input: Lab note: need pEC50 for CC(C)C(=O)NS(=O)(=O)CCNC(=O)c1ccc(Nc2nc(NC3(c4ccc(Cl)cc4)CC3)nc(OCC(F)(F)F)n2)cc1 [Example 4001] on HCV pseudoparticles, anyone have it?
Output: 7.00 to 9.30

Input: And then CC(C)(CNC(=O)c1ccc(Nc2nc(NC3(c4ccc(Cl)cc4)CC3)nc(OCC(F)(F)F)n2)cc1)C(=O)NS(=O)(=O)C1CC1 [Example 2084] , what is it?
Output: 7.00 to 9.30

Input: Follow-up entry: C[C@H](NC(=O)CCCNC(=O)c1ccc(Nc2nc(NC3(c4ccc(Cl)cc4)CC3)nc(OCC(F)(F)F)n2)cc1)C(=O)NS(=O)(=O)C1CC1 [Example 2057]
Output: 7.00 to 9.30
